Molecular target: Gal3S(b1-4)[Fuc(a1-3)]Glc6S
Assay: glycan array binding signal (z-score within array); higher = stronger binding
Conditions: glycan notation: IUPAC condensed, linker removed
This excerpt belongs to a sample that is enriched for the strongest signals.
reported_endpoint: glycan array binding signal (z-score)

EULS2 M2 (Oryza sativa) (protein) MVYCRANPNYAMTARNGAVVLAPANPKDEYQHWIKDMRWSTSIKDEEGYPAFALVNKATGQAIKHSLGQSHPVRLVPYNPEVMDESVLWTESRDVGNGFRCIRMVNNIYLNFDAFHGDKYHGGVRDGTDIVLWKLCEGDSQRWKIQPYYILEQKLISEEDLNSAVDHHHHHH	0.271

Turning now to a further binder:
Which glycan array binding signal (z-score) is listed for SynCAM (Mus musculus) (protein) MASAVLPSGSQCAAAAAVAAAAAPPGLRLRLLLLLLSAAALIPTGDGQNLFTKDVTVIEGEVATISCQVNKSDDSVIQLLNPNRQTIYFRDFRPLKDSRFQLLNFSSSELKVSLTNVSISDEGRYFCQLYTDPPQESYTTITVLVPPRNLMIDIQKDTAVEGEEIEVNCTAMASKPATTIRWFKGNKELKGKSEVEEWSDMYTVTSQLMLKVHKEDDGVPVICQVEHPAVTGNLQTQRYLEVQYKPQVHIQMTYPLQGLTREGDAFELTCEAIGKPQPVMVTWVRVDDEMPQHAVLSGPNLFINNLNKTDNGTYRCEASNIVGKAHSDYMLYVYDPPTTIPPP ? 3.97
